- Test system: Saccharomyces cerevisiae;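 note: PSI is a weighted mean of sequencing reads over stability bins, variants kept only with over 10 reads, mCherry proximal and sfGFP distal, peptide attached via GGGS linker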
- procedure.summary: protein stability index of tFT-peptide fusion (C-terminal peptide) (PSI (0-1 scale)); higher = more stable (slower turnover)
- assay.conditions: genetic background: wild type; temperature: 30 C
Recorded protein stability index values for a group of sequences are listed next.

{"columns": ["input.sequence", "assay.target", "protein stability index"],
 "data": [
  ["SACVEQVHLRWF", "Saccharomyces cerevisiae", 0.642],
  ["AVCGPHLYPRVI", "Saccharomyces cerevisiae", 0.643],
  ["GNSGAFTPSTQW", "Saccharomyces cerevisiae", 0.687],
  ["PAAVAQAFPLIT", "Saccharomyces cerevisiae", 0.649],
  ["AGGGGGRGSAGA", "Saccharomyces cerevisiae", 0.711],
  ["CLTHLLPPAFPC", "Saccharomyces cerevisiae", 0.694],
  ["PSPTPPPPRSPS", "Saccharomyces cerevisiae", 0.721],
  ["RLRRSSSNPHSP", "Saccharomyces cerevisiae", 0.656],
  ["IAVSSHPVLVCK", "Saccharomyces cerevisiae", 0.596],
  ["DSSLDWGREARA", "Saccharomyces cerevisiae", 0.649],
  ["KKEGIWEGERVG", "Saccharomyces cerevisiae", 0.724],
  ["SLFRGHLLPPRP", "Saccharomyces cerevisiae", 0.688],
  ["SYPTRSKSAYSL", "Saccharomyces cerevisiae", 0.652],
  ["SEFKLVVGSRSD", "Saccharomyces cerevisiae", 0.715],
  ["FSPSPPPPAPLH", "Saccharomyces cerevisiae", 0.729],
  ["ILKKLNQEINKE", "Saccharomyces cerevisiae", 0.698],
  ["RGRGGGGVVGRW", "Saccharomyces cerevisiae", 0.712],
  ["IVADKSPLSSPP", "Saccharomyces cerevisiae", 0.695],
  ["ILQGENKEGINT", "Saccharomyces cerevisiae", 0.668]
]}
